Molecular target: human mAChR M1 (Homo sapiens, UniProt P11229)
Experiment: mAChR M1 cell-based functional assay: calcium mobilization, positive allosteric modulator mode (increase in EC20 acetylcholine response)
Settings: Table 2; human M1; read-out: Human M1 Emax (%)
Experimental: a. Cell Lines Expressing Muscarinic Acetylcholine Receptors Chinese hamster ovary (CHO-K1) cells stably expressing rat (r)M1 were purchased from the American Type Culture Collection and cultured according to their indicated protocol. […] Calcium flux was measured using the Functional Drug Screening System (FDSS) 6000 (Hamamatsu Corporation, Tokyo, Japan) as an increase in the fluorescent static ratio. […]
PROPERTY MEASURED: Emax (%)
Only the number, expressed in %, is required.

Would you please look over these solved cases?
>>> value("Cn1ccc2nc(C(=O)N[C@@H]3CCCOC3)cc(Cc3ccc(-c4cscn4)cc3)c21 [Compound 463]")
71.9
>>> value("Cn1ccc(-c2ccc(Cc3cc(C(=O)N[C@H]4CCCOC4)nc4ccsc34)cn2)n1 [Compound 422]")
71.6
>>> value("O=C(N[C@H]1CCOC1)c1cc(Cc2ccc(-c3nccs3)cc2)c2sccc2n1 [Compound 369]")
59.5
>>> value("Cc1ncc(Cc2cc(C(=O)N[C@@H]3CCC[C@H]3O)nc3ccsc23)cn1 [Compound 125]")
59.1
>>> value("COC1CC(NC(=O)c2cc(Cc3ccc(-c4cscn4)cc3)c3sccc3n2)C1 (centres unmarked) [Compound 204]")
83.5
>>> value("Cn1ccc(-c2ccc(Cc3cc(C(=O)NC4CC5(COC5)C4)nc4ccn(C)c34)cn2)n1 [Compound 507]")
77.6
>>> value("O=C(NC1CCOCC1)c1cc(Cc2ccc(-c3cncs3)cc2)c2sccc2n1 [Compound 394]")
65.5
>>> value("Cn1ccc(-c2ccc(Cc3cc(C(=O)N[C@H]4CCOC[C@@H]4O)nc4ccn(C)c34)cc2)n1 [Compound 474]")
70.4
>>> value("Cc1csc2c(Cc3ccc(-n4cccn4)cc3)cc(C(=O)NC3CCCNC3=O)nc12 (centres unmarked) [Compound 122]")
80.4
>>> value("Cc1ccc(Cc2cc(C(=O)N[C@H]3CCCNC3)nc3ccsc23)cn1 [Compound 266]")
59.3

# context switch: different compound, same Emax
Data request: I'd like to know its Emax. The compound in question is Cn1ccc2nc(C(=O)N[C@H]3CCOC[C@@H]3O)cc(Cc3ccc(-n4cccn4)cc3)c21 [Compound 453]
Data returned: 63.1

* * *

Target: human mAChR M1 (Homo sapiens, UniProt P11229)
Sequence (P11229 1-460): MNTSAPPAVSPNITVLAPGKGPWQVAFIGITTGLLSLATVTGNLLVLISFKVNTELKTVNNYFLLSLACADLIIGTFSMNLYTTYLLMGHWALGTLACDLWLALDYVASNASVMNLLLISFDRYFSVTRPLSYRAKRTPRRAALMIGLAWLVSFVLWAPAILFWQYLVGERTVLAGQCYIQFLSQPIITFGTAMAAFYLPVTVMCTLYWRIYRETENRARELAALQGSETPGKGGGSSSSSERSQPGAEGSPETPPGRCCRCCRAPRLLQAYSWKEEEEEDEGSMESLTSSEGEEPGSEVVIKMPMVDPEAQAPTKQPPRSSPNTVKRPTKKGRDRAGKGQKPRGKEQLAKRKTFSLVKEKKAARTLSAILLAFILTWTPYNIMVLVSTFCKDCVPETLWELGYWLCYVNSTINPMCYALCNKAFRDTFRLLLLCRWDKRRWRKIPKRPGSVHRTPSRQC
Experiment: mAChR M1 cell-based functional assay: calcium mobilization, positive allosteric modulator mode (increase in EC20 acetylcholine response)
Settings: Table 2; human M1; read-out: Human M1 Emax (%)
Class 1.0: Emax at least 80%. Class 0.0: Emax below 80%.

Examples with answers:
>>> class_label("Cn1ccc(-c2ccc(Cc3cc(C(=O)NC4CCOC(C)(C)C4)nc4ccsc34)cc2)n1 (centres unmarked)")
1.0
>>> class_label("Cc1nc(-c2ccc(Cc3cc(C(=O)NC4CCCCNC4=O)nc4ccsc34)cc2)cs1 (centres unmarked)")
1.0
>>> class_label("Cn1ccc(-c2ccc(Cc3cc(C(=O)NC4CCOC(C)(C)C4)nc4ccsc34)cn2)n1 (centres unmarked)")
0.0
>>> class_label("O=C(NC1CCOCC1)c1cc(Cc2ccc(-c3cscn3)cc2)c2sccc2n1")
0.0
>>> class_label("Cn1cc(-c2cc(F)c(Cc3cc(C(=O)N[C@H]4COCC[C@@H]4O)nc4ccsc34)c(F)c2)cn1")
0.0

Data request: Dear colleague, could you confirm whether `Cn1cc(-c2ccc(Cc3cc(C(=O)N[C@H]4CCOC[C@@H]4O)nc4ccsc34)c(F)c2)cn1` has Emax at or above 80%?
Data returned: 0.0

Data request: Dear colleague, could you confirm whether `Cn1ccc2nc(C(=O)N[C@H]3CC[C@@H]3O)cc(Cc3ccc(-c4cscn4)cc3)c21` has Emax at or above 80%?
Data returned: 0.0

Data request: Dear colleague, could you confirm whether `O=C(NC1COC1)c1cc(Cc2ccc(-c3cscn3)cc2)c2sccc2n1` has Emax at or above 80%?
Data returned: 0.0

Data request: Dear colleague, could you confirm whether `O=C(N[C@@H]1CCOC1)c1cc(Cc2ccc(-n3cccn3)cc2)c2sccc2n1` has Emax at or above 80%?
Data returned: 0.0

Data request: Dear colleague, could you confirm whether `Cn1ccc(-c2ccc(Cc3cc(C(=O)N[C@@H]4CC[C@H]4O)nc4ccsc34)cc2)n1` has Emax at or above 80%?
Data returned: 0.0

Data request: Dear colleague, could you confirm whether `O=C(N[C@@H]1CCOC[C@H]1O)c1cc(Cc2ccc(C(F)(F)F)nc2)c2sccc2n1` has Emax at or above 80%?
Data returned: 1.0

* * *

Recorded Emax, one value per entry.
Molecular target: human mAChR M1 (Homo sapiens)
Sequence (P11229 1-460): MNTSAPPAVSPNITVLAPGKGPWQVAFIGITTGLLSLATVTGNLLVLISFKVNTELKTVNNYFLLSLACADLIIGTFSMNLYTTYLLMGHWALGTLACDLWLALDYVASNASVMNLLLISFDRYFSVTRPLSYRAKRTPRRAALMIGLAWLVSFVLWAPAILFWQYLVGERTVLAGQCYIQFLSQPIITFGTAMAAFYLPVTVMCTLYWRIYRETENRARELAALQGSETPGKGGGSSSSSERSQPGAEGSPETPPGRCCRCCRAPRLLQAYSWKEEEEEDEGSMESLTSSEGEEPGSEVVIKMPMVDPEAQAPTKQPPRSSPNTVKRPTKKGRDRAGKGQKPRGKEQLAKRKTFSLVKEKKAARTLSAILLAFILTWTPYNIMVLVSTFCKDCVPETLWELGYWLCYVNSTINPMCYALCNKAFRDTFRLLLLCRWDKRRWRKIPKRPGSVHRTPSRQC
Assay: mAChR M1 cell-based functional assay: calcium mobilization, positive allosteric modulator mode (increase in EC20 acetylcholine response)
Conditions: Table 2; human M1; read-out: Human M1 Emax (%)
Your answer should be a number followed by the unit of measure.

Would you please look over these solved cases?
>>> value("C[C@H]1COCC[C@@H]1NC(=O)c1cc(Cc2ccc(-c3cncs3)cc2)c2sccc2n1")
"68.7%"
>>> value("Cc1cc2nc(C(=O)N[C@H]3CCOC[C@@H]3O)cc(Cc3ccc(-n4cccn4)cc3)c2s1")
"84.7%"
>>> value("Cc1nc(-c2ccc(Cc3cc(C(=O)N[C@@H]4CCCOC4)nc4ccsc34)cc2)cs1")
"83.2%"

Data request: I'd like to know its Emax. The molecule in question is `Cn1cc(-c2ccc(Cc3cc(C(=O)N[C@H]4CCC[C@@H]4O)nc4ccsc34)c(F)c2)cn1`
Data returned: 51%

Data request: I'd like to know its Emax. The molecule in question is `O=C(NC1COC1)c1cc(Cc2ccc(-n3cccn3)cc2)c2sccc2n1`
Data returned: 68.7%

Data request: I'd like to know its Emax. The molecule in question is `Cc1csc2c(Cc3ccc(-n4cccn4)cc3)cc(C(=O)NC3CCOCC3)nc12`
Data returned: 86.2%

Data request: I'd like to know its Emax. The molecule in question is `Cc1nc(-c2ccc(Cc3cc(C(=O)NC4CN(C(C)(C)C)C4)nc4ccsc34)cc2)cs1`
Data returned: 65.2%

Data request: I'd like to know its Emax. The molecule in question is Cc1nc(-c2ccc(Cc3cc(C(=O)NC4CCCNC4=O)nc4ccsc34)cc2)co1 (stereo not shown)
Data returned: 93%

Data request: I'd like to know its Emax. The molecule in question is `Cn1ccc2nc(C(=O)N[C@H]3CCC[C@@H]3O)cc(Cc3ccc(-c4cscn4)cc3)c21`
Data returned: 73.4%

Data request: I'd like to know its Emax. The molecule in question is `Cc1nn(C)c(C)c1-c1ccc(Cc2cc(C(=O)NC3CC4(COC4)C3)nc3ccsc23)cc1`
Data returned: 18.8%

Data request: I'd like to know its Emax. The molecule in question is `Cc1nc(-c2ccc(Cc3cc(C(=O)NC4CC5(COC5)C4)nc4ccsc34)cc2)cs1`
Data returned: 86%

Data request: I'd like to know its Emax. The molecule in question is `O=C(NC12CC3CC(CC(O)(C3)C1)C2)c1cc(Cc2ccc(C(F)(F)F)nc2)c2sccc2n1`
Data returned: 34.2%

Data request: I'd like to know its Emax. The molecule in question is Cc1ccc(C(F)c2cc(C(=O)N[C@@H]3CCCC[C@H]3O)nc3ccsc23)cn1 (stereo partly shown)
Data returned: 87.9%

Data request: I'd like to know its Emax. The molecule in question is `Cn1ccc2nc(C(=O)NC3CC4(COC4)C3)cc(Cc3ccc(-n4cccn4)cc3)c21`
Data returned: 73.1%

Data request: I'd like to know its Emax. The molecule in question is `Cc1nc(-c2ccc(Cc3cc(C(=O)N[C@H]4CCOC4)nc4ccsc34)cc2)cs1`
Data returned: 68.5%

Data request: I'd like to know its Emax. The molecule in question is `Cc1ncc(Cc2cc(C(=O)NC34CC5CC(CC(O)(C5)C3)C4)nc3ccsc23)s1`
Data returned: 36.9%
